Could you please report measured EC50 for the items listed next?
systemName: 5-HT1D-like receptor (Oryctolagus cuniculus, UniProt P49144)
Construct: Ring segments of the vein (4-5 mm in length) were cut and the endothelium gently removed; from tissue; host or cells: saphenous vein rings, endothelium removed, male New Zealand White rabbits
Sequence (P49144 whole entry): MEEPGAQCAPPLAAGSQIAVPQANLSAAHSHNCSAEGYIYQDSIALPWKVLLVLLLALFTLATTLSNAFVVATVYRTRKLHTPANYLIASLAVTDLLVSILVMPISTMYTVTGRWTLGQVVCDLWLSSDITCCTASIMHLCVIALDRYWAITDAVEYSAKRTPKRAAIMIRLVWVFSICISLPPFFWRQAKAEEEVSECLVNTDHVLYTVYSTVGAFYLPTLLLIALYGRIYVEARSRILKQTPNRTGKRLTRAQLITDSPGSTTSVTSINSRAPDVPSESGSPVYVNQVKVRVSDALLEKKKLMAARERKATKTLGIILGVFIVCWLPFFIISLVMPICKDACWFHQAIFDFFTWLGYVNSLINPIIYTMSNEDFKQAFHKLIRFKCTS
assayProtocol: Agonist assay: contraction of rabbit isolated saphenous vein (5-HT1D-like receptor agonist activity)
Set-up: species or system rabbit (New Zealand White)
// units = nM; emit number, no label

Data point: CC(C)c1ccc2[nH]cc(C[C@H]3CCCN3C)c2c1 ; EC50 = 29

Data point: CC(C)(C)c1ccc2[nH]cc(CCN3CCCC3)c2c1 ; EC50 = 1200

Data point: Cc1ccc2[nH]cc(CCN3CCCC3)c2c1 ; EC50 = 590

Data point: Cc1ccc2[nH]cc(C[C@@H]3CCCN3C)c2c1 ; EC50 = 1800

Data point: CCc1ccc2[nH]cc(C[C@H]3CCCN3C)c2c1 [Example 11b] ; EC50 = 15
